These measurements were taken from patent US10828305B2.

molecular target: EGFR kinase (Homo sapiens, UniProt P00533); assay: Enzymatic experiment on EGFR (HTRF kinEASE-TK); assay type: biochemical; settings: ATP 1.65 μM; read-out: Kinase IC50 (nM) in vitro EGFR
Sequence (P00533 25-1210): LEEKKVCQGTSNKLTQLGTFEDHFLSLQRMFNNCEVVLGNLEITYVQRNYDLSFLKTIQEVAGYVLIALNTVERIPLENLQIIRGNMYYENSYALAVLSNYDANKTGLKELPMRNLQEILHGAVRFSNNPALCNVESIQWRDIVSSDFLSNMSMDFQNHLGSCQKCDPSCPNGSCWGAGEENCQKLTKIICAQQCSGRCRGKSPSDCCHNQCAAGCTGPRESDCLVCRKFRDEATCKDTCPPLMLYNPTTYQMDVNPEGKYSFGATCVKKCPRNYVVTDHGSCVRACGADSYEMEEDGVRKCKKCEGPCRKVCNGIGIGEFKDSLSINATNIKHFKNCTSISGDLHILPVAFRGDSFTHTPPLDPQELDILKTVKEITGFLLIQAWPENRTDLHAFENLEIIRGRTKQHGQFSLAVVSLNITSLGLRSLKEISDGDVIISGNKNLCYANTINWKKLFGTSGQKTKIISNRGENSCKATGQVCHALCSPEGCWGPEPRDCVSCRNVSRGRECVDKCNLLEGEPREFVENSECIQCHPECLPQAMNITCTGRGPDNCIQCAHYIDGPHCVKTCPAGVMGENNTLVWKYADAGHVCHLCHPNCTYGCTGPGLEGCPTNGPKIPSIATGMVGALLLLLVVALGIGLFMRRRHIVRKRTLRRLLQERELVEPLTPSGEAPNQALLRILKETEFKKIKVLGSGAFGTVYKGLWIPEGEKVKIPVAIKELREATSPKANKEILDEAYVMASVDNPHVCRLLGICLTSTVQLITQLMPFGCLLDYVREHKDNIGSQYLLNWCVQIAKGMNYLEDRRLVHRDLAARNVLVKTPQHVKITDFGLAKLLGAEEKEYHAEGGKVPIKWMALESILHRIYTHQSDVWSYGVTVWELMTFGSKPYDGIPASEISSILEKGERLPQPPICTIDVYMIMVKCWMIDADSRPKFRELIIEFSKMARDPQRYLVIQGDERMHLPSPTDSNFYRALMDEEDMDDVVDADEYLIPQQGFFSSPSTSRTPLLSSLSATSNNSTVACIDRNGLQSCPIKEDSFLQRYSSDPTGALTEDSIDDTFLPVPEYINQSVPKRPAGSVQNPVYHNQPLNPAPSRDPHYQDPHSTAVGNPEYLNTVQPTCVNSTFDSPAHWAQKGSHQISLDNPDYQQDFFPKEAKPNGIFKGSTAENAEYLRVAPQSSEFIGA
Bucketed by reported IC50, buckets being one = under 30 nM, two = from 30 nM up to 60 nM, three = 60 nM and over

{"Compound": "COc1cc2ncnc(Nc3ccc(Oc4cc5nncn5cn4)c(C)c3)c2cc1OC1CCN(C(=O)/C=C/CN(C)C)CC1", "Assay System": "EGFR kinase (Homo sapiens, UniProt P00533)", "Assigned Label": "one"}
{"Compound": "Cc1cc(Nc2ncnc3ccc(NC(=O)Nc4cc(C)n(C(=O)OC(C)(C)C)n4)cc23)ccc1Oc1cc2nncn2cn1", "Assay System": "EGFR kinase (Homo sapiens, UniProt P00533)", "Assigned Label": "three"}
{"Compound": "Cc1cc(Nc2ncnc3ccc(NC4=N[C@H](C)CO4)cc23)ccc1Oc1cc2nncn2cn1", "Assay System": "EGFR kinase (Homo sapiens, UniProt P00533)", "Assigned Label": "three"}
{"Compound": "Cc1cc(Nc2ncnc3ccc(NC4=NC5(CCC5)CO4)cc23)ccc1Oc1cc2nncn2cn1", "Assay System": "EGFR kinase (Homo sapiens, UniProt P00533)", "Assigned Label": "one"}
{"Compound": "Cc1cc(Nc2ncnc3ccc(NC4=NC(C)(C)CO4)cc23)ccc1Oc1ccc2nncn2n1 [reference compound]", "Assay System": "EGFR kinase (Homo sapiens, UniProt P00533)", "Assigned Label": "three"}
{"Compound": "Cc1cc(Nc2ncnc3ccc(-c4ccco4)cc23)ccc1Oc1cc2nncn2cn1", "Assay System": "EGFR kinase (Homo sapiens, UniProt P00533)", "Assigned Label": "two"}
{"Compound": "C=CC(=O)N1CCC2(CC1)CN=C(Nc1ccc3ncnc(Nc4ccc(Oc5cc6nncn6cn5)c(C)c4)c3c1)O2", "Assay System": "EGFR kinase (Homo sapiens, UniProt P00533)", "Assigned Label": "three"}
{"Compound": "C=CC(=O)N1CCC(Oc2cc3c(Nc4ccc(Oc5cc6nncn6cn5)c(C)c4)ncnc3cc2OC)CC1", "Assay System": "EGFR kinase (Homo sapiens, UniProt P00533)", "Assigned Label": "one"}
{"Compound": "Cc1cc(Nc2ncnc3ccc(NC4=NC(C)(C)CO4)cc23)ccc1Oc1cc2nccn2cn1", "Assay System": "EGFR kinase (Homo sapiens, UniProt P00533)", "Assigned Label": "one"}
{"Compound": "Cc1cc(Nc2ncnc3ccc(NC4=NC(C)(C)CO4)cc23)ccc1Oc1ccn2ncnc2c1 [drawing 219, reference compound]", "Assay System": "EGFR kinase (Homo sapiens, UniProt P00533)", "Assigned Label": "two"}
{"Compound": "Cc1cc(Nc2ncnc3ccc(-c4ccc(CN5CCN(S(C)(=O)=O)CC5)o4)cc23)ccc1Oc1cc2nncn2cn1", "Assay System": "EGFR kinase (Homo sapiens, UniProt P00533)", "Assigned Label": "one"}
{"Compound": "Cc1cc(Nc2ncnc3ccc(NC4=N[C@@H](C(C)C)CO4)cc23)ccc1Oc1cc2nncn2cn1", "Assay System": "EGFR kinase (Homo sapiens, UniProt P00533)", "Assigned Label": "one"}
{"Compound": "Cc1cc(Nc2ncnc3ccc(NC4=NC(C)(C)CO4)cc23)ccc1Oc1cc2nncn2cn1", "Assay System": "EGFR kinase (Homo sapiens, UniProt P00533)", "Assigned Label": "two"}
{"Compound": "C=CC(=O)Nc1cc(-c2ccc3ncnc(Nc4ccc(Oc5cc6nncn6cn5)c(C)c4)c3c2)ccn1", "Assay System": "EGFR kinase (Homo sapiens, UniProt P00533)", "Assigned Label": "one"}
{"Compound": "Cc1cc(Nc2ncnc3ccc(NC4=NCC(F)(F)CO4)cc23)ccc1Oc1cc2nncn2cn1", "Assay System": "EGFR kinase (Homo sapiens, UniProt P00533)", "Assigned Label": "three"}
{"Compound": "C=CC(=O)NC/C=C/c1ccc2ncnc(Nc3ccc(Oc4cc5nncn5cn4)c(C)c3)c2c1", "Assay System": "EGFR kinase (Homo sapiens, UniProt P00533)", "Assigned Label": "two"}
{"Compound": "Cc1cc(Nc2ncnc3ccc(NC4=NCC5(CCOCC5)O4)cc23)ccc1Oc1cc2nncn2cn1", "Assay System": "EGFR kinase (Homo sapiens, UniProt P00533)", "Assigned Label": "two"}
{"Compound": "Cc1cc(Nc2ncnc3ccc(NC(=S)NC(C)(C)CNC(=O)OC(C)(C)C)cc23)ccc1Oc1cc2nncn2cn1", "Assay System": "EGFR kinase (Homo sapiens, UniProt P00533)", "Assigned Label": "three"}
{"Compound": "Cc1cc(Nc2ncnc3ccc(-c4cccc(CNCCS(C)(=O)=O)c4)cc23)ccc1Oc1cc2nncn2cn1", "Assay System": "EGFR kinase (Homo sapiens, UniProt P00533)", "Assigned Label": "one"}
{"Compound": "Cc1cc(Nc2ncnc3ccc(NC4=NC(C)(C)CO4)cc23)cc(C)c1Oc1cc2nncn2cn1", "Assay System": "EGFR kinase (Homo sapiens, UniProt P00533)", "Assigned Label": "two"}
{"Compound": "C=CC(=O)N1CCC(Oc2cc3c(Nc4ccc(Oc5cc6nncn6cn5)c(F)c4)ncnc3cc2OC)CC1", "Assay System": "EGFR kinase (Homo sapiens, UniProt P00533)", "Assigned Label": "one"}
{"Compound": "CC1(C)COC(Nc2ccc3ncnc(Nc4ccc(Oc5cc6nncn6cn5)c(Cl)c4)c3c2)=N1", "Assay System": "EGFR kinase (Homo sapiens, UniProt P00533)", "Assigned Label": "one"}
{"Compound": "Cc1cc(Nc2ncnc3ccc(-c4ccc(CN(C)C)o4)cc23)ccc1Oc1cc2nncn2cn1", "Assay System": "EGFR kinase (Homo sapiens, UniProt P00533)", "Assigned Label": "two"}
{"Compound": "Cc1cc(Nc2ncnc3ccc(NC4=NC(C)(C)CS4)cc23)ccc1Oc1cc2nncn2cn1", "Assay System": "EGFR kinase (Homo sapiens, UniProt P00533)", "Assigned Label": "two"}
{"Compound": "Cc1cc(Nc2ncnc3ccc(NC(=S)NCC(C)(C)N)cc23)ccc1Oc1cc2nncn2cn1", "Assay System": "EGFR kinase (Homo sapiens, UniProt P00533)", "Assigned Label": "three"}
{"Compound": "CCNC(=O)Nc1cccc(-c2ccc3ncnc(Nc4ccc(Oc5cc6nncn6cn5)c(C)c4)c3c2)c1", "Assay System": "EGFR kinase (Homo sapiens, UniProt P00533)", "Assigned Label": "one"}
{"Compound": "Cc1cc(Nc2ncnc3ccc(NC4=NC(C)(C)CO4)cc23)ccc1Oc1cc2ncnn2cn1", "Assay System": "EGFR kinase (Homo sapiens, UniProt P00533)", "Assigned Label": "three"}
{"Compound": "Cc1cc(Nc2ncnc3ccc(NC(=S)NCC(C)(C)O)cc23)ccc1Oc1cc2nncn2cn1", "Assay System": "EGFR kinase (Homo sapiens, UniProt P00533)", "Assigned Label": "three"}
{"Compound": "Cc1cc(Nc2ncnc3ccc(NC4=NCC5(CCN(C)CC5)O4)cc23)ccc1Oc1cc2nncn2cn1", "Assay System": "EGFR kinase (Homo sapiens, UniProt P00533)", "Assigned Label": "two"}
